- subject of test: SIRT1 (Homo sapiens, UniProt Q96EB6)
- Sequence (Q96EB6 whole entry): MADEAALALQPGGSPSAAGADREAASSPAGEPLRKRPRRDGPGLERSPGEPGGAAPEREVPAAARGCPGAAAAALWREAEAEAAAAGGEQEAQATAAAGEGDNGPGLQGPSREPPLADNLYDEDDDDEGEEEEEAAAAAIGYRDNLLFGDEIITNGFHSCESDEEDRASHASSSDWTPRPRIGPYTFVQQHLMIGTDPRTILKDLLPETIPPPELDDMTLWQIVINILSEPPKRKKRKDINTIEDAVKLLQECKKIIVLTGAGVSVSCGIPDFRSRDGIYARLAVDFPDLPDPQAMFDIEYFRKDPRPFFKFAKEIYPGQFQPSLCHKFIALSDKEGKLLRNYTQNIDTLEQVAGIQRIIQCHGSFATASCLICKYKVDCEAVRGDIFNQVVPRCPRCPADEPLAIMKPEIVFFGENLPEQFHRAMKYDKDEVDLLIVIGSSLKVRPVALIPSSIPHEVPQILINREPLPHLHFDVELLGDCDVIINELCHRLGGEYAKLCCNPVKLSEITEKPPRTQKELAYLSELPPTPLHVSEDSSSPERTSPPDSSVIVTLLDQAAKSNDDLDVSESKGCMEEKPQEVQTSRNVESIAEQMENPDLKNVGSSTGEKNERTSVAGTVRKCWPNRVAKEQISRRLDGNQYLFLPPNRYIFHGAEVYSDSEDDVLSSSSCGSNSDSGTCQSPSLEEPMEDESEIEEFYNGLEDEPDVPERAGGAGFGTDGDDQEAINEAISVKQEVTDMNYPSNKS
- assay procedure: Mass spectrometry based assay to identify modulators of SIRT1 activity (deacetylation of p53-based acetylated peptide substrate)
- Type: biochemical
readout name: EC1.5 (concentration giving 1.5-fold activation)

| chemical string | readout value |
| --- | --- |
| Cc1nn(C)c(C)c1NC(=O)N1CCCOc2ccc(-c3cccc(Cl)c3)nc21 | > 25 µM |
| O=C(Nc1ccncn1)N1CCOc2c(N3CCOCC3)nc(-c3cccc(F)c3)nc21 | > 25 µM |
| O=C(Nc1ccccn1)N1CCCOc2ccc(-c3cccc(Cl)c3)nc21 | 1 to 25 µM |

Now turn to the next molecule.
Supply reported EC1.5 (concentration giving 1.5-fold activation) belonging to this molecule: O=C(Nc1ccccn1)N1CCCC(F)(F)c2ccc(-c3cccc(Cl)c3)nc21 > 25 µM
